Target: T1, canine IL-31 protein (Canine_IL31) (canine)
T1 chain: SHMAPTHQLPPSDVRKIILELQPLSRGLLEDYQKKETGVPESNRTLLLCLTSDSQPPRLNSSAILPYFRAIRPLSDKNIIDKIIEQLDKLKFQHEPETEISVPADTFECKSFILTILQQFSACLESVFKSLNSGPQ
Assay: SPR (Biacore), IL-31 on chip, 1:1 fit
Listed next: entries and their corresponding koff.
Observation Type: koff (s⁻¹)

- Feline 15H05 1.3 (antibody, V domains shown, Feline heavy and kappa constant regions) VH: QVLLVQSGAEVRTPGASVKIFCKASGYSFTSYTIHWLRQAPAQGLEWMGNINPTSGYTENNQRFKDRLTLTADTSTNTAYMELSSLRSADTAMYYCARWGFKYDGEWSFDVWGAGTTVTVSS VL: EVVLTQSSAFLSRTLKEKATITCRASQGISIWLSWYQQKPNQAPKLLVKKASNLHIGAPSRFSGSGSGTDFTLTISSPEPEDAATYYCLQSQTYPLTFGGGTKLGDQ: 0.00019
- mouse anti IL-31 antibody 11E12 (antibody, V domains shown, Mouse monoclonal comparison antibody; also called MU-11E12; mouse 11E12) VH: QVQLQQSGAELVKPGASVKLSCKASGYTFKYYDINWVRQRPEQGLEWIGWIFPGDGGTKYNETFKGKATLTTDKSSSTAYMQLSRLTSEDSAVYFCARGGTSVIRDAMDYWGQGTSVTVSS VL: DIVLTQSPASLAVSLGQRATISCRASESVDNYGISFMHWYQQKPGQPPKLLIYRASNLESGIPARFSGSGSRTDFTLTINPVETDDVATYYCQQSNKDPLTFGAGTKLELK: 4.8e-07
